Measured values drawn from the supplement of paper PMC10567573 for this set.

B1: KRT18 (parent)
chain: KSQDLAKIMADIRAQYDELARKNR

- Variants of: B1
- Assay summary: protein stability index of a GFP-peptide fusion (GPS, HEK-293T) (PSI 1-6); higher = more stable;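 note: lentivirally expressed fusions sorted by FACS into six bins by GFP to DsRed ratio, PSI derived from sequencing read proportions per bin multiplied by bin number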
- Measurement context: c terminus: a fixed tail appended
Label scheme for protein stability index: lower than 3 is false (0), 3 and above is true (1).

Worked examples follow.
seq=KSQDLAKIMADIRAQYDELARTNR discrete_label="false (0)"
seq=KSQDLAKIMADIRAQYDELHRKNR discrete_label="true (1)"

Data request: Is it the case that "KSQDNAKIMADIRAQYDELARKNR" has protein stability index reaching or exceeding 3?
Data returned: true (1)
